# ASSAY SYSTEM: Potassium channel subfamily K member 3 (Rattus norvegicus)
# PROCEDURE DETAILS: off-target block of rat KCNK3 – cell-based, FluxOR thallium flux, CRC set 1, selectivity assay for KCNK9 inhibitor project, SAR follow-up (AID 588776)
# MEASUREMENT SETUP: KCNK3-expressing cells, FluxOR thallium flux fluorescence
pIC50: −log10 of the molar value.
ENDPOINT NAME: pIC50

> print(dat)
                                   compound  observed
1  COc1cccc(C(=O)CSc2nnc(-c3ccco3)n2C(C)C2CC3CCC2C3)c1 (stereo not drawn)      4.83
2  CC(CCC1CCCC1)n1c(-c2ccco2)n[nH]c1=S (stereo not drawn)      5.63
3  CC(C1CC2CCC1C2)n1c(SCC(=O)c2ccc(Cl)c(Cl)c2)nnc1-c1ccco1 (stereo not drawn)      5.10
4  CC(C1CC2CCC1C2)n1c(SCC(=O)c2ccccc2)nnc1-c1ccco1 (stereo not drawn)      5.91
5  CC(CC1CC2CCC1C2)n1c(-c2ccco2)n[nH]c1=S (stereo not drawn)      4.80

query: Return reported pIC50; argument: C[C@@H](C1CCCCC1)n1c(-c2ccco2)n[nH]c1=S
result: < 4.52

query: Record: COc1ccc(CCSc2nnc(-c3ccco3)n2C(C)C2CC3CCC2C3)cc1OC (stereo not drawn)
result: 4.81

query: Try the compound CC(C1CC2CCC1C2)n1c(SCC(=O)c2ccc3c(c2)OCO3)nnc1-c1ccco1 (stereo not drawn)
result: 5.31
